Test system: Escherichia coli
assay_comment: Antibacterial activity against kanamycin-resistant Escherichia coli AG100A by double microdilution method
Type: functional
recorded_metric: MIC

INSERT INTO results (smi, observed_measurement) VALUES
  ('NC[C@H]1O[C@H](O[C@H]2[C@H](O)[C@@H](O[C@H]3O[C@H](CO)[C@@H](O)[C@H](N)[C@H]3O)[C@H](NC(=O)CCc3cn(Cc4ccc(CN5CCN(c6cc7c(cc6F)c(=O)c(C(=O)O)cn7C6CC6)CC5)cc4)nn3)C[C@@H]2N)[C@H](O)[C@@H](O)[C@@H]1O', '3 µg/mL'),
  ('NC[C@H]1O[C@H](O[C@H]2[C@H](O)[C@@H](O[C@H]3O[C@H](CO)[C@@H](O)[C@H](N)[C@H]3O)[C@H](NCc3cn(Cc4ccc(CN5CCN(c6cc7c(cc6F)c(=O)c(C(=O)O)cn7C6CC6)CC5)cc4)nn3)C[C@@H]2N)[C@H](O)[C@@H](O)[C@@H]1O', '0.28 µg/mL'),
  ('NC[C@H]1O[C@H](O[C@H]2[C@H](O)[C@@H](O[C@H]3O[C@H](CO)[C@@H](O)[C@H](N)[C@H]3O)[C@H](NC(=O)CCCc3cn(Cc4ccc(CN5CCN(c6cc7c(cc6F)c(=O)c(C(=O)O)cn7C6CC6)CC5)cc4)nn3)C[C@@H]2N)[C@H](O)[C@@H](O)[C@@H]1O', '0.75 µg/mL'),
  ('O=C(O)c1cn(C2CC2)c2cc(N3CCNCC3)c(F)cc2c1=O', '< 0.005 µg/mL'),
  ('NC[C@H]1O[C@H](O[C@H]2[C@H](O)[C@@H](O[C@H]3O[C@H](CO)[C@@H](O)[C@H](N)[C@H]3O)[C@H](NC(=O)CCc3cn(Cc4cccc(CN5CCN(c6cc7c(cc6F)c(=O)c(C(=O)O)cn7C6CC6)CC5)c4)nn3)C[C@@H]2N)[C@H](O)[C@@H](O)[C@@H]1O', '1.5 µg/mL'),
  ('NC[C@H]1O[C@H](O[C@H]2[C@H](O)[C@@H](O[C@H]3O[C@H](CO)[C@@H](O)[C@H](N)[C@H]3O)[C@H](NC(=O)CCc3cn(CCOCCN4CCN(c5cc6c(cc5F)c(=O)c(C(=O)O)cn6C5CC5)CC4)nn3)C[C@@H]2N)[C@H](O)[C@@H](O)[C@@H]1O', '0.75 µg/mL'),
  ('NC[C@H]1O[C@H](O[C@H]2[C@H](O)[C@@H](O[C@H]3O[C@H](CO)[C@@H](O)[C@H](N)[C@H]3O)[C@H](NC(=O)CCc3cn(CCN4CCN(c5cc6c(cc5F)c(=O)c(C(=O)O)cn6C5CC5)CC4)nn3)C[C@@H]2N)[C@H](O)[C@@H](O)[C@@H]1O', '0.75 µg/mL'),
  ('NC[C@H]1O[C@H](O[C@H]2[C@H](O)[C@@H](O[C@H]3O[C@H](CO)[C@@H](O)[C@H](N)[C@H]3O)[C@H](NCc3cn(Cc4cccc(CN5CCN(c6cc7c(cc6F)c(=O)c(C(=O)O)cn7C6CC6)CC5)c4)nn3)C[C@@H]2N)[C@H](O)[C@@H](O)[C@@H]1O', '1.5 µg/mL');

Source listed as ChEMBL document CHEMBL4033618.
